These entries and their values trace back to ChEMBL document CHEMBL4411330.

# experimental.details: Cytotoxicity against human B cells assessed as cell death after 48 hrs by annexin V/propidium iodide-staining based flow cytometry
# setup.conditions: read-out: LC50
endpoint.label: CC50 at 48 h (nM)
Quick reminder: number only, in nM, skip the unit.

Q: Report CC50 at 48 h for `COc1ccc(NC(=O)CCCOc2cc3c(cc2OC)C(=O)N2CCC[C@H]2C=N3)cc1` please.
Ans: 640

Q: Report CC50 at 48 h for `CCOc1ccc(NC(=O)CCCOc2cc3c(cc2OC)C(=O)N2CCC[C@H]2C=N3)cc1` please.
Ans: 750

Q: Report CC50 at 48 h for `COc1cc2c(cc1OCCCC(=O)NC1CCCCC1)N=C[C@@H]1CCCN1C2=O` please.
Ans: 1700

Q: Report CC50 at 48 h for `COc1cc2c(cc1OCCCC(=O)Nc1ccc3occc3c1)N=C[C@@H]1CCCN1C2=O` please.
Ans: 1400

Q: Report CC50 at 48 h for `COC(=O)c1cc2cc(NC(=O)CCCOc3cc4c(cc3OC)C(=O)N3CCC[C@H]3C=N4)ccc2o1` please.
Ans: 410

Q: Report CC50 at 48 h for `COC(=O)c1cc(NC(=O)c2cc3cc(NC(=O)CCCOc4cc5c(cc4OC)C(=O)N4CCC[C@H]4C=N5)ccc3o2)cn1C` please.
Ans: 930

Q: Report CC50 at 48 h for `CCCOc1ccc(NC(=O)CCCOc2cc3c(cc2OC)C(=O)N2CCC[C@H]2C=N3)cc1` please.
Ans: 390

* * *

# experimental.details: Cytotoxicity against human T cells assessed as cell death after 48 hrs by annexin V/propidium iodide-staining based flow cytometry
# setup.conditions: read-out: LC50
One threshold, 2 µM, splits the recorded CC50 at 48 h values: lower ones are YES, equal or higher ones are NO.

Q: Determine whether this molecule shows CC50 at 48 h lower than 2 µM (ties excluded): `COc1cc2c(cc1OCCCC(=O)Nc1ccc3occc3c1)N=C[C@@H]1CCCN1C2=O`
Ans: NO

Q: Determine whether this molecule shows CC50 at 48 h lower than 2 µM (ties excluded): `COc1cc2c(cc1OCCCC(=O)NC1CCCCC1)N=C[C@@H]1CCCN1C2=O`
Ans: NO

Q: Determine whether this molecule shows CC50 at 48 h lower than 2 µM (ties excluded): `COc1ccc(NC(=O)CCCOc2cc3c(cc2OC)C(=O)N2CCC[C@H]2C=N3)cc1`
Ans: YES

Q: Determine whether this molecule shows CC50 at 48 h lower than 2 µM (ties excluded): `COC(=O)c1cc(NC(=O)c2cc3cc(NC(=O)CCCOc4cc5c(cc4OC)C(=O)N4CCC[C@H]4C=N5)ccc3o2)cn1C`
Ans: YES

Q: Determine whether this molecule shows CC50 at 48 h lower than 2 µM (ties excluded): `CCCOc1ccc(NC(=O)CCCOc2cc3c(cc2OC)C(=O)N2CCC[C@H]2C=N3)cc1`
Ans: YES

Q: Determine whether this molecule shows CC50 at 48 h lower than 2 µM (ties excluded): `COC(=O)c1cc2cc(NC(=O)CCCOc3cc4c(cc3OC)C(=O)N3CCC[C@H]3C=N4)ccc2o1`
Ans: NO

Q: Determine whether this molecule shows CC50 at 48 h lower than 2 µM (ties excluded): `CCOc1ccc(NC(=O)CCCOc2cc3c(cc2OC)C(=O)N2CCC[C@H]2C=N3)cc1`
Ans: NO
